- experimentNotes: gradient 5% acetonitrile 3 min, to 50% in 2 min, to 85% in 15 min, held 3 min, 100 µL/min
- testContext: column: Zorbax Extend-C18 2.1 x 50 mm; eluents: water / acetonitrile, 0.1% formic acid
// reported RP-LC retention time per item
Dear colleague, please return just the value in s, with no unit written.

>>> print(df.to_string())
                                   molecule  reading
0  CO[C@H]1C(=O)N(C2CCN(S(=O)(=O)c3cccs3)CC2)[C@H]1c1ccncc1      619

Exam item: Quick one: RP-LC retention time for Cc1ccc(C)c(NC(=O)CSc2ccc(N3CCCC(C(=O)NC4CC4)C3)nn2)c1 (stereo not given) ?
Marked response: 681

Exam item: Quick one: RP-LC retention time for O=C(C1CC1)N1CCc2ccc(NS(=O)(=O)C3CCCCC3)cc21 ?
Marked response: 830

Exam item: Quick one: RP-LC retention time for CCc1cccc(C)c1NC(=O)CSc1ccc(N2CCCC(C(=O)NC3CC3)C2)nn1 (stereo not given) ?
Marked response: 662

Exam item: Quick one: RP-LC retention time for Cc1cc(C)cc(NS(=O)(=O)c2cn(CC(C)C)c3ncccc23)c1 ?
Marked response: 763

Exam item: Quick one: RP-LC retention time for COc1ccc(Cl)cc1C(=O)N1CCC(C(=O)Nc2nccs2)CC1 ?
Marked response: 697

Exam item: Quick one: RP-LC retention time for Cc1cc(NC(=O)CSc2cc(-c3ccccc3)ncn2)no1 ?
Marked response: 780

Exam item: Quick one: RP-LC retention time for COc1ccccc1N1CCN(c2cc(SCC(=O)NCC3CCCO3)ncn2)CC1 (stereo not given) ?
Marked response: 732

Exam item: Quick one: RP-LC retention time for CC(=O)Nc1ccccc1SC(CC(=O)c1ccco1)c1ccc2c(c1)OCO2 (stereo not given) ?
Marked response: 858

Exam item: Quick one: RP-LC retention time for COc1ccc(-c2nc3cnccn3c2Nc2cc(C)cc(C)c2)cc1 ?
Marked response: 952
